- system-name: β-secretase II (BACE2) (Homo sapiens, UniProt Q9Y5Z0)
- Sequence (Q9Y5Z0 63-518): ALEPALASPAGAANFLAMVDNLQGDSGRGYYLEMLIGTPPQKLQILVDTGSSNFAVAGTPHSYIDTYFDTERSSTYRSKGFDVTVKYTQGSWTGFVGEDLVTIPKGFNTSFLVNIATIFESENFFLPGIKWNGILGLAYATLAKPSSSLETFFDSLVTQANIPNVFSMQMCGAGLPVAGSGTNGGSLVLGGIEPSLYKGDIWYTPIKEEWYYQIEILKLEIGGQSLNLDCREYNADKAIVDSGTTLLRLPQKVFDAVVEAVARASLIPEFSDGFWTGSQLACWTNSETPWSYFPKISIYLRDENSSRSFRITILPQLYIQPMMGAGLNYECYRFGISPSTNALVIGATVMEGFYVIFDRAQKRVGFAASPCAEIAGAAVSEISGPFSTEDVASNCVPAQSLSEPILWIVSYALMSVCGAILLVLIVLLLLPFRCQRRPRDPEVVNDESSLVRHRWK
result-type: IC50 (nM)
Give bare numbers, in nM.

{"molecule": "COc1ncc(CNC(=O)C2CC2)c2c1C[C@]1(c3ccc(F)cc3F)N=C(N)SC[C@@H]1C2 [Compound 31a]", "IC50 (nM)": 87.1}
{"molecule": "COc1ncc(CNC(=O)CN2CCOCC2)c2c1C[C@]1(c3ccc(F)cc3F)N=C(N)SC[C@@H]1C2", "IC50 (nM)": 79.4}

Provide IC50 for all items below, preserving their order.
1. COc1ncc(CNC(=O)c2ccncn2)c2c1C[C@]1(c3ccc(F)cc3F)N=C(N)SC[C@@H]1C2
2. COc1ncc(C(=O)N2CCN(c3ccncc3)CC2)c2c1C[C@]1(c3ccc(F)cc3F)N=C(N)SC[C@@H]1C2
3. COc1ncc(CNC(=O)c2cccnc2)c2c1C[C@]1(c3ccc(F)cc3F)N=C(N)SC[C@@H]1C2
4. COc1ncc(C(=O)N2Cc3cccnc3C2)c2c1C[C@]1(c3ccc(F)cc3F)N=C(N)SC[C@@H]1C2
5. COc1ncc(C(=O)N(C)Cc2ccncc2)c2c1C[C@]1(c3ccc(F)cc3F)N=C(N)SC[C@@H]1C2

Response:
1: 309; 2: 2370; 3: 29.5; 4: 3550; 5: 30.2

---

β-secretase II (BACE2) (Homo sapiens): recorded IC50 for assorted molecules
One number for each entry, in µM.

Provide IC50 for all items below, preserving their order.
1. COc1ncc(CNC(=O)c2ccncc2)c2c1C[C@]1(c3ccc(F)cc3F)N=C(N)SC[C@@H]1C2 [Compound 30a]
2. COc1cc(OC)nc(C(=O)NCc2cnc(OC)c3c2C[C@H]2CSC(N)=N[C@@]2(c2ccc(F)cc2F)C3)n1
3. COc1ncc(C(=O)N2CCCCC2)c2c1C[C@]1(c3ccc(F)cc3F)N=C(N)SC[C@@H]1C2
4. COc1cccc(C(=O)NCc2cnc(OC)c3c2C[C@H]2CSC(N)=N[C@@]2(c2ccc(F)cc2F)C3)n1

Response:
1. 0.468
2. 0.178
3. 0.195
4. 0.389

---

- Test system: Abeta 1-42 produced and secreted by human neuroblastoma SKNBE2 cells expressing hAPP695
- assay-details: Cellular αLisa assay in SKNBE2 cells, Abeta 1-42
- Assay type: cell-based
- details: 18 hours incubation
Field: Cellular αLisa assay in SKNBE2 cells Abeta 42 pIC50. Provide a value for each of the compounds that follow.
Give bare numbers.

{"compound": "COc1ncc(CNC(=O)c2cc(C)no2)c2c1C[C@]1(c3ccc(F)cc3F)N=C(N)SC[C@@H]1C2 [Compound 32a]", "measurement": 7.07}
{"compound": "COc1ncc(CNC(=O)c2ccncc2)c2c1C[C@]1(c3ccc(F)cc3F)N=C(N)SC[C@@H]1C2 [Compound 30a]", "measurement": 7}
{"compound": "COc1ncc(CNC(=O)C2CC2)c2c1C[C@]1(c3ccc(F)cc3F)N=C(N)SC[C@@H]1C2 [Compound 31a]", "measurement": 7.39}
{"compound": "COc1ncc(CNC(=O)c2cc(C)no2)c2c1C[C@]1(c3ccc(F)cc3F)N=C(N)SC[C@@H]1C2 [Compound 32]", "measurement": 7.41}

Pending compound:
Query: Give the reported Cellular αLisa assay in SKNBE2 cells Abeta 42 pIC50 for this compound. COc1ncc(CNC(=O)c2ccncc2)c2c1C[C@]1(c3ccc(F)cc3F)N=C(N)SC[C@@H]1C2 [Compound 30]
Response: 7.31

---

- system-name: recombinant BACE1 protein (Homo sapiens, UniProt P56817)
- Construct: recombinant BACE1 protein in a final concentration of 0.04 μg/ml
- Sequence (P56817 46-501): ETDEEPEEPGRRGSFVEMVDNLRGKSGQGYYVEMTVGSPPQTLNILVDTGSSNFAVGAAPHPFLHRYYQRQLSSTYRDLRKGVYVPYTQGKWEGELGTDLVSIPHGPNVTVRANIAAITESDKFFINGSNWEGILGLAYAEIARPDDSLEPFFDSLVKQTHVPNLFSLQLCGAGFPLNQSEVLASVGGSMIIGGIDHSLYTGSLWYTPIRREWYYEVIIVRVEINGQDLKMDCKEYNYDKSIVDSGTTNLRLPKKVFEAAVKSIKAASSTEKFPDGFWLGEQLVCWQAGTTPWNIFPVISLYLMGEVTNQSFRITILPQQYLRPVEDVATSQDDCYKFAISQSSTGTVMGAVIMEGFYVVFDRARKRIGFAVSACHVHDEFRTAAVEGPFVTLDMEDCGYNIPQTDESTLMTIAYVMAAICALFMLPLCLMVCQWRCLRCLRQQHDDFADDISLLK
- assay-details: BACE1 biochemical FRET based assay
- details: 450 min at room temperature, pH 5.0, read-out: Biochemical FRET based assay pIC50 (converted)
Field: IC50. Provide a value for each of the molecules that follow.
One number for each entry, in nM.

The cases that follow already have their IC50 on record.
{"molecule": "COc1ncc(CNC(=O)C2CC2)c2c1C[C@]1(c3ccc(F)cc3F)N=C(N)SC[C@@H]1C2 [Compound 31]", "IC50 / nM": 81.3}
{"molecule": "COc1ncc(CNC(=O)c2nccnc2Cl)c2c1C[C@]1(c3ccc(F)cc3F)N=C(N)SC[C@@H]1C2 [Compound 48]", "IC50 / nM": 21.9}
{"molecule": "COc1ncc(C(=O)N2CCOCC2)c2c1C[C@]1(c3ccc(F)cc3F)N=C(N)SC[C@@H]1C2 [Compound 2]", "IC50 / nM": 219}
{"molecule": "COc1ncc(C(=O)NC2CC2)c2c1C[C@]1(c3ccc(F)cc3F)N=C(N)SC[C@@H]1C2 [Compound 1a]", "IC50 / nM": 66.1}
{"molecule": "COc1ncc(CNC(=O)c2cc(C)no2)c2c1C[C@]1(c3ccc(F)cc3F)N=C(N)SC[C@@H]1C2 [Compound 32]", "IC50 / nM": 110}

Query: Give the reported IC50 for this molecule. COc1ncc(CNC(=O)c2cc(C)no2)c2c1C[C@]1(c3ccc(F)cc3F)N=C(N)SC[C@@H]1C2 [Compound 32a]
Response: 182

---

- system-name: β-secretase I (BACE1) (Homo sapiens)
- Sequence (P56817 46-501): as above
Field: pIC50. Provide a value for each of the compounds that follow.
Answers are plain numbers, as −log10 of the molar value.

The cases that follow already have their pIC50 on record.
{"compound": "COc1ncc(CNC(=O)c2ccncn2)c2c1C[C@]1(c3ccc(F)cc3F)N=C(N)SC[C@@H]1C2", "measurement": 6.94}
{"compound": "COc1ncc(CNC(=O)C2CC2)c2c1C[C@]1(c3ccc(F)cc3F)N=C(N)SC[C@@H]1C2 [Compound 31a]", "measurement": 7.15}
{"compound": "COc1ncc(C(=O)N2CCN(c3cccnc3)CC2)c2c1C[C@]1(c3ccc(F)cc3F)N=C(N)SC[C@@H]1C2", "measurement": 6.84}

Pending compound:
Query: Give the reported pIC50 for this compound. COc1ncc(C(=O)N2CCOC(c3cccc(C)c3)C2)c2c1C[C@]1(c3ccc(F)cc3F)N=C(N)SC[C@@H]1C2 (stereo partly shown)
Response: 7.16
